Entry source: patent US20160129089A1

tested on: human growth hormone receptor mRNA; test: Inhibition of human growth hormone receptor mRNA levels by antisense oligonucleotides, quantitative real-time PCR, MCF7 cells; type: cell-based; parameters: concentration or dose not given beside the values; details: averages from three experiments
e = 2'-O-(2-methoxyethyl) (MOE); d = 2'-deoxy (DNA)
Form field: % INHIB (inhibitory effect on hGHR mRNA levels) (one value per entry).
Value expressed in %; do not type the unit.

Sample answers from the record:
227475 (antisense CCTGCTGGTGTAATGTCGCT; sugars from the 5' end e5 d10 e5, all phosphorothioate, methylation of C not given here) [compound 227475] ... 68
272339 (antisense GTTTTACATATCCAAACTAT; sugars from the 5' end e5 d10 e5, all phosphorothioate, methylation of C not given here) [compound 272339] ... 72

Consider the additional substance presented here.
Ask: Specify measured % INHIB (inhibitory effect on hGHR mRNA levels) for 272328 (antisense GGCATTGTCCATAAGGAAGT; sugars from the 5' end e5 d10 e5, all phosphorothioate, methylation of C not given here) [compound 272328] .
Reply: 85
